Cited source for all entries: the supplement of paper PMC10567573

Reported protein stability index by item:
B1: KCNG1 (parent)
chain: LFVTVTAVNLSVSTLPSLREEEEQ

- Variants of: B1
- assayExplanation: protein stability index of a GFP-peptide fusion (GPS, HEK-293T) (PSI 1-6); higher = more stable;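 also: lentivirally expressed fusions sorted by FACS into six bins by GFP to DsRed ratio, PSI derived from sequencing read proportions per bin multiplied by bin number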
- conditionsUsed: c terminus: a fixed tail appended
Lab note: record just the number, no unit beside it.

Please review the following examples before continuing.
>  <primarySequence>
LFVTVTAVNLSVSTLPSDREEEEQ [L18D]

>  <protein stability index>
2.05

$$$$
>  <primarySequence>
LFVTVTAVNCSVSTLPSLREEEEQ [L10C]

>  <protein stability index>
1.45

$$$$
>  <primarySequence>
LFVTVTAVNMSVSTLPSLREEEEQ [L10M]

>  <protein stability index>
2.21

$$$$

Query: # get_value(readout='protein stability index', item= LSVTVTAVNLSVSTLPSLREEEEQ [F2S] )
Reply: 1.99
